- experimentalSystem: IsdH linker-NEAT3 (Staphylococcus aureus Mu50, UniProt Q931P4)
- Sequence (Q931P4 476-664): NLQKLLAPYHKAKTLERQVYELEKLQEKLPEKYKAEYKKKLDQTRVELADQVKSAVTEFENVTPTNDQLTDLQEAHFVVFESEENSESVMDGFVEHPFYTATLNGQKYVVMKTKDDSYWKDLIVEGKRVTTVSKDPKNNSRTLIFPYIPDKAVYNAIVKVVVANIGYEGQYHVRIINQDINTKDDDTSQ
- protocolDescription: SPR
- setupConditions: both partners purified
attributeMeasured: Kd (nM)

>>> endpointvalue("VHH6 Y57A (VHH, source: E. coli BL21(DE3), purified as the WT (Ni-NTA, SEC)) VHH: ELQLVESGGGLVQPGGSLSLSCEVSGFSFDDVDNFIIAWFRQAPGKEREGVSFLRKADMSTYYAESVKGRFTISSDNARDTVYLQMTNLKPEDTAVYYCALDREGFVFEQGMDFWGKGTQVTVSS")
114
>>> endpointvalue("VHH6 Y62A (VHH, source: E. coli BL21(DE3), purified as the WT (Ni-NTA, SEC)) VHH: ELQLVESGGGLVQPGGSLSLSCEVSGFSFDDVDNFIIAWFRQAPGKEREGVSFLRKYDMSTAYAESVKGRFTISSDNARDTVYLQMTNLKPEDTAVYYCALDREGFVFEQGMDFWGKGTQVTVSS")
45.4
>>> endpointvalue("VHH6 R55A (VHH, source: E. coli BL21(DE3), purified as the WT (Ni-NTA, SEC)) VHH: ELQLVESGGGLVQPGGSLSLSCEVSGFSFDDVDNFIIAWFRQAPGKEREGVSFLAKYDMSTYYAESVKGRFTISSDNARDTVYLQMTNLKPEDTAVYYCALDREGFVFEQGMDFWGKGTQVTVSS")
25.4
>>> endpointvalue("VHH6 F106A (VHH, source: E. coli BL21(DE3), purified as the WT (Ni-NTA, SEC)) VHH: ELQLVESGGGLVQPGGSLSLSCEVSGFSFDDVDNFIIAWFRQAPGKEREGVSFLRKYDMSTYYAESVKGRFTISSDNARDTVYLQMTNLKPEDTAVYYCALDREGAVFEQGMDFWGKGTQVTVSS")
3.1
